Item-by-item account of Ki
target: D(1A) dopamine receptor (Homo sapiens); test: Displacement of [3H]-SCH23390 from recombinant human D1 receptor transiently expressed in HEKT cell membranes measured after 90 mins by microbeta scintillation counting method
Sequence (P21728 whole entry): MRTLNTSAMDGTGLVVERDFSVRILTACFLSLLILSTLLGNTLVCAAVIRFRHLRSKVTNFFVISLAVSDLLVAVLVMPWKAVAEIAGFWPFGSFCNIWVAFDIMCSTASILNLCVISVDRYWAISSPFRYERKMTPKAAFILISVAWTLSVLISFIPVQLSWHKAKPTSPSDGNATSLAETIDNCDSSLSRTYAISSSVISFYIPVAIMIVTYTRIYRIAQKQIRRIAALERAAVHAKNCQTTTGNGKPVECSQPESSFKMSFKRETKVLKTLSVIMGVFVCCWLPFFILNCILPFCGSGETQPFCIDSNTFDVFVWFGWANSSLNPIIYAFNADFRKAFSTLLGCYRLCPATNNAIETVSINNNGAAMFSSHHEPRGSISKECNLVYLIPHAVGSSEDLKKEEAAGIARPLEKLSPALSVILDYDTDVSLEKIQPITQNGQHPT
Response body: numeric value in µM, unit text excluded.

The molecule identified as CCCN(CCCCNC(=O)c1cc2ccccc2[nH]1)CC1CC1c1ccc(Cl)cc1 (stereo not given) registered its Ki at 0.649

The molecule identified as CCN(CCCSc1nnc(-c2ccccc2)n1C)CC1CC1c1cc(F)ccc1OCCF (stereo not given) registered its Ki at 0.584

The molecule identified as CCCN(CCCCNC(=O)c1cc2ccccc2[nH]1)CC1CC1c1ccc(C(F)(F)F)cc1 (stereo not given) registered its Ki at 1.28

The molecule identified as COc1ccc(F)cc1C1CC1CN(CCCSc1nnc(-c2ccccc2)n1C)CC1CC1 (stereo not given) registered its Ki at 1.08

The molecule identified as CCCN(CCCCNC(=O)c1ccc(-c2ccccn2)cc1)CC1CC1c1cccc(F)c1 (stereo not given) registered its Ki at 2.91

====

assay: Drug level in ICR mouse brain at 10 mg/kg, po measured after 0.5 hrs by LC-MS/MS analysis; format: ADME, organism-based
Quantity measured: concentration at 0.5 h
In your response, put the unit directly after the numeric value.

Here is how some molecules turned out for concentration at 0.5 h.
CCCN(CCCCNC(=O)c1ccc(-c2ccccn2)cc1)C[C@@H]1C[C@H]1c1cccc(Cl)c1Cl.Cl ... 0.0267 µg/mL
CCCN(CCCCNC(=O)c1ccc2ccccc2c1)C[C@@H]1C[C@H]1c1cccc(Cl)c1Cl.Cl ... 0.0232 µg/mL
CCCN(CCCCNC(=O)c1ccc(-c2ccccn2)cc1)C[C@@H]1C[C@H]1c1cc(F)ccc1OC.Cl ... 0.00821 µg/mL

# evaluate next
The molecule identified as `CCCN(CCCCNC(=O)c1cc2ccccc2[nH]1)C[C@@H]1C[C@H]1c1cccc(Cl)c1Cl.Cl` registered its concentration at 0.5 h at 0.0513 µg/mL

====

assay: Drug level in ICR mouse plasma at 5 mg/kg, iv measured after 2 hrs by LC-MS/MS analysis; format: ADME, organism-based
Item-by-item account of concentration at 2 h
Response body: numeric value in ng/mL, unit text excluded.

CCCN(CCCCNC(=O)c1cc2ccccc2[nH]1)C[C@@H]1C[C@H]1c1cccc(Cl)c1Cl.Cl ... 94.8
CCCN(CCCCNC(=O)c1ccc(-c2ccccn2)cc1)C[C@@H]1C[C@H]1c1cccc(Cl)c1Cl.Cl ... 118
CCCN(CCCCNC(=O)c1ccc2ccccc2c1)C[C@@H]1C[C@H]1c1cccc(Cl)c1Cl.Cl ... 82.6

The compound identified as `CCCN(CCCCNC(=O)c1ccc(-c2ccccn2)cc1)C[C@@H]1C[C@H]1c1cc(F)ccc1OC.Cl` registered its concentration at 2 h at 12.7

====

assay: MRT in ICR mouse at 10 mg/kg, po by LC-MS/MS analysis; type: ADME, organism-based; details: in vivo
Quantity measured: MRT (h)
Response body: numeric value in h, unit text excluded.

CCCN(CCCCNC(=O)c1cc2ccccc2[nH]1)C[C@@H]1C[C@H]1c1cccc(Cl)c1Cl.Cl ... 6

The compound identified as `CCCN(CCCCNC(=O)c1ccc(-c2ccccn2)cc1)C[C@@H]1C[C@H]1c1cccc(Cl)c1Cl.Cl` registered its MRT at 2.77

The compound identified as `CCCN(CCCCNC(=O)c1ccc(-c2ccccn2)cc1)C[C@@H]1C[C@H]1c1cc(F)ccc1OC.Cl` registered its MRT at 3.72

The compound identified as `CCCN(CCCCNC(=O)c1ccc2ccccc2c1)C[C@@H]1C[C@H]1c1cccc(Cl)c1Cl.Cl` registered its MRT at 2.59
